# TESTED ON: T1, cMet-Fc fusion protein (extracellular domain of the cMet receptor expressed as an Fc-fusion protein) (human, UniProt P08581 25-932)
# T1 construct: extracellular domain; also called soluble cMet-Fc-fusion protein; soluble cMet receptor; not shown: Fc part
# T1 sequence (P08581 25-932): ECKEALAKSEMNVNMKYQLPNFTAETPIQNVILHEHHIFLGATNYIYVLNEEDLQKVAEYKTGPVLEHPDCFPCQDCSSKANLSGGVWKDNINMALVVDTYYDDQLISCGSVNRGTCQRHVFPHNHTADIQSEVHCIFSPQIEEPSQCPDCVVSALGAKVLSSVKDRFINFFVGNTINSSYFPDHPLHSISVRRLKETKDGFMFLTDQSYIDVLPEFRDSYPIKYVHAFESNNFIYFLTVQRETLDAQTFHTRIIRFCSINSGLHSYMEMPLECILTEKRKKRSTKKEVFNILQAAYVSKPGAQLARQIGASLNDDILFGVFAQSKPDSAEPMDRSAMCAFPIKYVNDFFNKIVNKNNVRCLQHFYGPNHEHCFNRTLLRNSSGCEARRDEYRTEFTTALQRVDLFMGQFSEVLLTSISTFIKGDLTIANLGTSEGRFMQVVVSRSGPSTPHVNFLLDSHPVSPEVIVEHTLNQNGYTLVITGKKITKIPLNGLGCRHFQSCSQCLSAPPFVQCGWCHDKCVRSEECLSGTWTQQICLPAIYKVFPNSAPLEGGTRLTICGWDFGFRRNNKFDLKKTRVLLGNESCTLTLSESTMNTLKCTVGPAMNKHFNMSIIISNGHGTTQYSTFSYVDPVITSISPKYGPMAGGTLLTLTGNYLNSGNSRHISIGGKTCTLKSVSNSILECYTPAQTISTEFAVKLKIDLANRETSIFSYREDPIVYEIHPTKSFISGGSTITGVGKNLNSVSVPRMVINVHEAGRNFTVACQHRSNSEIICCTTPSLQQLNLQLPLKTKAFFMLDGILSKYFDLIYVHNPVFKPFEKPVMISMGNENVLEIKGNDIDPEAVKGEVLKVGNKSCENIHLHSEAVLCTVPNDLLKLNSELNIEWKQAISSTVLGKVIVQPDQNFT
# ASSAY METHOD TEXT: phage ELISA on cMet-Fc, competitor HGF 100 ng/mL
QUANTITY KIND: % of binding in the absence of HGF (%)
Field format: number, assumed %, no unit text.

Reference set (5 entries):
{"BINDER": "GDDFHCEFIDDYQSEICYFNDP [333-C03 peptide-displaying phage (SEQ ID NO: 391)]", "UNITS": "%", "% of binding in the absence of HGF": 52}
{"BINDER": "AGQAVCEWGPFWCQMQGT [470-A02 peptide-displaying phage (SEQ ID NO: 031)]", "UNITS": "%", "% of binding in the absence of HGF": 78}
{"BINDER": "AQHMDPAEWDWFIRIYSPVVNP [149-E06 peptide-displaying phage (SEQ ID NO: 487)]", "UNITS": "%", "% of binding in the absence of HGF": 80}
{"BINDER": "AGKYMCEGFEWFCEMWGT [442-E08 peptide-displaying phage (SEQ ID NO: 037)]", "UNITS": "%", "% of binding in the absence of HGF": 81}
{"BINDER": "AGSFACKGPPTFACVEFGT [330-B07 peptide-displaying phage (SEQ ID NO: 053)]", "UNITS": "%", "% of binding in the absence of HGF": 58}

Entry AGWTWCDLSMMSCIFHGT [573-E07 peptide-displaying phage (SEQ ID NO: 025)] has what % of binding in the absence of HGF?
77

Which % of binding in the absence of HGF value belongs to GDPWWCFEKDSFIPFACWHHDP [330-G02 peptide-displaying phage (SEQ ID NO: 396)] ?
37

Hey, just so you know, these numbers are from patent US20120039802A1.
